From: PubChem BioAssay AID2060510

Please respond with reported viability, T/C for every item in the list.
System: 439559-082-T-J2-PDC spheroids viability
Protocol Details: Anticancer human tumor 439559-082-T-J2-PDC patient-derived colon adenocarcinoma cell line growth inhibition [GQUAD]
Conditions: second compound 1 µM; first compound 0.316 µM; active compounds read low
One number for each entry, in %.

Use the examples below as a reference point.
Compound	Unit Tag	Value Observed
Cc1[nH]c2ccccc2c1CCNCc1ccc(/C=C/C(=O)NO)cc1 + CN(C)c1ccc(Nc2c3ccc(NC(=O)CCN4CCCC4)cc3nc3cc(NC(=O)CCN4CCCC4)ccc23)cc1	%	64.1
CC1COCCN1c1cc(C2(S(C)(=N)=O)CC2)nc(-c2ccnc3[nH]ccc23)n1 (stereo not given) + Cc1cnc(CNC(=O)c2c(=O)c3ccc(N4CCCN(C)CC4)nc3n3c2sc2ccccc23)cn1	%	78.2
COc1cccc2c1C(=O)c1c(O)c3c(c(O)c1C2=O)CC(O)(C(=O)CO)CC3OC1CC(N)C(O)C(C)O1 (stereo not given) + CN(C)c1ccc(Nc2c3ccc(NC(=O)CCN4CCCC4)cc3nc3cc(NC(=O)CCN4CCCC4)ccc23)cc1	%	89.8

// for each compound in input: emit viability, T/C
1. CC1COCCN1c1cc(C2(O)CC3CCC(C2)O3)c2cnn(-c3ccn[nH]3)c2n1 (stereo not given) + Cc1cnc(CNC(=O)c2c(=O)c3ccc(N4CCCN(C)CC4)nc3n3c2sc2ccccc23)cn1
2. COc1ccc([C@@H](O)c2cc(-c3ncnc4cc(N5CCOCC5)ccc34)c(F)cc2Cl)nn1 + Cc1cnc(CNC(=O)c2c(=O)c3ccc(N4CCCN(C)CC4)nc3n3c2sc2ccccc23)cn1

OUTPUT:
[49.6, 74.4]

// for each compound in input: emit viability, T/C
1. COc1ncnc(C2CC2)c1-c1ncc2cnn(Cc3ccc(-c4nc(C(F)(F)F)cn4C(C)C)cc3)c2n1 + Cc1cnc(CNC(=O)c2c(=O)c3ccc(N4CCCN(C)CC4)nc3n3c2sc2ccccc23)cn1
2. CC1COCCN1c1cc(C2(O)CC3CCC(C2)O3)c2cnn(-c3ccn[nH]3)c2n1 (stereo not given) + Cc1[nH]c2ccc(F)cc2c1-c1nc2c3cccnc3c3ncccc3c2[nH]1
3. COc1cccc2c1C(=O)c1c(O)c3c(c(O)c1C2=O)CC(O)(C(=O)CO)CC3OC1CC(N)C(O)C(C)O1 (stereo not given) + Cc1cnc(CNC(=O)c2c(=O)c3ccc(N4CCCN(C)CC4)nc3n3c2sc2ccccc23)cn1
4. Cn1ncnc1[C@H]1c2n[nH]c(=O)c3cc(F)cc(c23)N[C@@H]1c1ccc(F)cc1 + Cc1cnc(CNC(=O)c2c(=O)c3ccc(N4CCCN(C)CC4)nc3n3c2sc2ccccc23)cn1
5. COc1cc(C2c3cc4c(cc3C(OC3OC5COC(C)OC5C(O)C3O)C3COC(=O)C23)OCO4)cc(OC)c1O (stereo not given) + Cc1cnc(CNC(=O)c2c(=O)c3ccc(N4CCCN(C)CC4)nc3n3c2sc2ccccc23)cn1

OUTPUT:
64.9
70.2
69.7
64.8
70.6

====

Test system: 439559-082-T-J2-PDC spheroids viability
Protocol Details: Anticancer human tumor 439559-082-T-J2-PDC cell line growth inhibition [GQUAD];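 note: spheroids exposed to the agents for 7 days before readout; percent of luminescence signal in DMSO vehicle wells taken as 100% viability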
Conditions: second compound 0.0316 µM; first compound 1 µM; active compounds read low
Endpoint Label: viability, T/C (%)
Give bare numbers, in %.

// for each compound in input: emit viability, T/C
1. CC(=O)O[C@H]1C(=O)[C@@]2(C)[C@H]([C@H](OC(=O)c3ccccc3)[C@]3(O)C[C@H](OC(=O)[C@H](O)[C@@H](NC(=O)c4ccccc4)c4ccccc4)C(C)=C1C3(C)C)[C@]1(OC(C)=O)CO[C@@H]1C[C@@H]2O + Cc1cnc(CNC(=O)c2c(=O)c3ccc(N4CCCN(C)CC4)nc3n3c2sc2ccccc23)cn1
2. COc1ccc([C@@H](O)c2cc(-c3ncnc4cc(N5CCOCC5)ccc34)c(F)cc2Cl)nn1 + Cc1cnc(CNC(=O)c2c(=O)c3ccc(N4CCCN(C)CC4)nc3n3c2sc2ccccc23)cn1

OUTPUT:
74.2
89.9

====

Tested on: 439559-082-T-J2-PDC spheroids viability
Protocol Details: Anticancer human tumor 439559-082-T-J2-PDC cell line growth inhibition [GQUAD];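 note: spheroids exposed to the agents for 7 days before readout; percent of luminescence signal in DMSO vehicle wells taken as 100% viability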
Conditions: second compound 0.0316 µM; first compound 0.1 µM; active compounds read low
Endpoint Label: viability, T/C (%)
One number for each entry, in %.

Use the examples below as a reference point.
Molecule	System	Endpoint Label	Value Observed
C=CCn1c(=O)c2cnc(Nc3ccc(N4CCN(C)CC4)cc3)nc2n1-c1cccc(C(C)(C)O)n1 + CN(C)c1ccc(Nc2c3ccc(NC(=O)CCN4CCCC4)cc3nc3cc(NC(=O)CCN4CCCC4)ccc23)cc1	439559-082-T-J2-PDC spheroids viability	viability, T/C	89.5
CC(C)n1c(=O)n(C)c2cnc3cc(F)c(-c4ccc(OCCCN5CCCCC5)nc4)cc3c21 + Cc1cnc(CNC(=O)c2c(=O)c3ccc(N4CCCN(C)CC4)nc3n3c2sc2ccccc23)cn1	439559-082-T-J2-PDC spheroids viability	viability, T/C	77.3

// for each molecule in input: emit viability, T/C
1. O=C(c1cc(Cc2n[nH]c(=O)c3ccccc23)ccc1F)N1CCN(C(=O)C2CC2)CC1 + CN(C)c1ccc(Nc2c3ccc(NC(=O)CCN4CCCC4)cc3nc3cc(NC(=O)CCN4CCCC4)ccc23)cc1
2. Cc1cccc(N(C)C(=O)C2C(O)CCN2c2nc(C)cc(C(F)(F)F)c2C#N)c1 (stereo not given) + Cc1cnc(CNC(=O)c2c(=O)c3ccc(N4CCCN(C)CC4)nc3n3c2sc2ccccc23)cn1
3. CC(C)(O)C1CCC(Nc2ccc3ncc(-c4cccc(C(F)(F)F)c4)n3n2)CC1 (stereo not given) + Cc1[nH]c2ccc(F)cc2c1-c1nc2c3cccnc3c3ncccc3c2[nH]1

OUTPUT:
1. 92.1
2. 95.6
3. 85.6

====

Test system: 439559-082-T-J2-PDC spheroids viability
Protocol Details: Anticancer human tumor 439559-082-T-J2-PDC cell line growth inhibition [GQUAD];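 note: spheroids exposed to the agents for 7 days before readout; percent of luminescence signal in DMSO vehicle wells taken as 100% viability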
Conditions: second compound 1 µM; first compound 0.316 µM; active compounds read low
Please respond with reported viability, T/C for every item in the list.
One number for each entry, in %.

Use the examples below as a reference point.
Compound	viability, T/C, %
Nc1ccn(C2OC(CO)C(O)C2(F)F)c(=O)n1 (stereo not given) + CN(C)c1ccc(Nc2c3ccc(NC(=O)CCN4CCCC4)cc3nc3cc(NC(=O)CCN4CCCC4)ccc23)cc1	45.8
COc1cc(C2c3cc4c(cc3C(OC3OC5COC(C)OC5C(O)C3O)C3COC(=O)C23)OCO4)cc(OC)c1O (stereo not given) + CN(C)c1ccc(Nc2c3ccc(NC(=O)CCN4CCCC4)cc3nc3cc(NC(=O)CCN4CCCC4)ccc23)cc1	89.6
Cc1cccc(N(C)C(=O)C2C(O)CCN2c2nc(C)cc(C(F)(F)F)c2C#N)c1 (stereo not given) + Cc1cnc(CNC(=O)c2c(=O)c3ccc(N4CCCN(C)CC4)nc3n3c2sc2ccccc23)cn1	74.2
CC(=O)O[C@H]1C(=O)[C@@]2(C)[C@H]([C@H](OC(=O)c3ccccc3)[C@]3(O)C[C@H](OC(=O)[C@H](O)[C@@H](NC(=O)c4ccccc4)c4ccccc4)C(C)=C1C3(C)C)[C@]1(OC(C)=O)CO[C@@H]1C[C@@H]2O + Cc1cnc(CNC(=O)c2c(=O)c3ccc(N4CCCN(C)CC4)nc3n3c2sc2ccccc23)cn1	76.6
CC1COCCN1c1cc(-c2ccnn2C)c2ccnc(-c3ccn[nH]3)c2n1 (stereo not given) + CN(C)c1ccc(Nc2c3ccc(NC(=O)CCN4CCCC4)cc3nc3cc(NC(=O)CCN4CCCC4)ccc23)cc1	39.5

// for each compound in input: emit viability, T/C
1. C=CC(=O)N1CCN(c2nc(=O)n(-c3c(C)ccnc3C(C)C)c3nc(-c4c(O)cccc4F)c(F)cc23)C(C)C1 (stereo not given) + Cc1[nH]c2ccc(F)cc2c1-c1nc2c3cccnc3c3ncccc3c2[nH]1
2. Cc1cccc(N(C)C(=O)C2C(O)CCN2c2nc(C)cc(C(F)(F)F)c2C#N)c1 (stereo not given) + CN(C)c1ccc(Nc2c3ccc(NC(=O)CCN4CCCC4)cc3nc3cc(NC(=O)CCN4CCCC4)ccc23)cc1
3. COc1ncnc(C2CC2)c1-c1ncc2cnn(Cc3ccc(-c4nc(C(F)(F)F)cn4C(C)C)cc3)c2n1 + CN(C)c1ccc(Nc2c3ccc(NC(=O)CCN4CCCC4)cc3nc3cc(NC(=O)CCN4CCCC4)ccc23)cc1
4. CC(C)(O)C1CCC(Nc2ccc3ncc(-c4cccc(C(F)(F)F)c4)n3n2)CC1 (stereo not given) + CN(C)c1ccc(Nc2c3ccc(NC(=O)CCN4CCCC4)cc3nc3cc(NC(=O)CCN4CCCC4)ccc23)cc1
5. C=CCn1c(=O)c2cnc(Nc3ccc(N4CCN(C)CC4)cc3)nc2n1-c1cccc(C(C)(C)O)n1 + Cc1[nH]c2ccc(F)cc2c1-c1nc2c3cccnc3c3ncccc3c2[nH]1
6. C=CC(=O)N1CCN(c2nc(=O)n(-c3c(C)ccnc3C(C)C)c3nc(-c4c(O)cccc4F)c(F)cc23)C(C)C1 (stereo not given) + Cc1cnc(CNC(=O)c2c(=O)c3ccc(N4CCCN(C)CC4)nc3n3c2sc2ccccc23)cn1
7. COc1ccc([C@@H](O)c2cc(-c3ncnc4cc(N5CCOCC5)ccc34)c(F)cc2Cl)nn1 + CN(C)c1ccc(Nc2c3ccc(NC(=O)CCN4CCCC4)cc3nc3cc(NC(=O)CCN4CCCC4)ccc23)cc1
8. COc1cc(C2c3cc4c(cc3C(OC3OC5COC(C)OC5C(O)C3O)C3COC(=O)C23)OCO4)cc(OC)c1O (stereo not given) + Cc1[nH]c2ccc(F)cc2c1-c1nc2c3cccnc3c3ncccc3c2[nH]1

OUTPUT:
1: 93.4; 2: 97.5; 3: 98.4; 4: 107; 5: 100; 6: 76.1; 7: 95.7; 8: 89.4
